target: Scavenger receptor class B member 1 (Mus musculus) (UniProt Q61009); assay: SR-BI-mediated DiI-HDL uptake inhibitors, dose response, ldlA[mSR-BI] CHO cells, powder samples, set 3 (AID 588553); settings: DiI-HDL uptake fluorescence, 3 h
Sequence (Q61009 whole entry, looked up): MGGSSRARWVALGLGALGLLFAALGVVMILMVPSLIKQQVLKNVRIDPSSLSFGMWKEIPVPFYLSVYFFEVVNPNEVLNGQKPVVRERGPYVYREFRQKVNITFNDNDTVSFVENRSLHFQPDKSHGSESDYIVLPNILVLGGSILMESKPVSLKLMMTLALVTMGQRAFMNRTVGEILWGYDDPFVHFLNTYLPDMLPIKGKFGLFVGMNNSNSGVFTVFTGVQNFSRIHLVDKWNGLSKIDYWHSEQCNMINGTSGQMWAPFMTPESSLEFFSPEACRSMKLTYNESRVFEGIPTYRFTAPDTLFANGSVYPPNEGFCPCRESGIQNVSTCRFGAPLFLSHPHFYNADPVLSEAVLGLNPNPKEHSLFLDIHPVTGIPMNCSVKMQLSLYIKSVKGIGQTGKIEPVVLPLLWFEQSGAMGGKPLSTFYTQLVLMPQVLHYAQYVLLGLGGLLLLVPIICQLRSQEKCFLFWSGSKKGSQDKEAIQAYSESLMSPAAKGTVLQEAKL
assay.readout: AC50

>>> reported_value("COc1ccc(-c2nnn(CC(=O)N(CC(=O)NC3CCCC3)C3CCCCC3)n2)cc1OC")
"< 15 nM"
>>> reported_value("CC(C(=O)NC1CCCC1)N(C(=O)Cn1nnc(-c2ccc(Cl)c(Cl)c2)n1)C1CCCCC1 (stereo not given)")
"108 nM"
>>> reported_value("CCC(=O)N1CCc2cc(-c3csc(NC(=O)c4cc(OC)c(OC)c(OC)c4)n3)ccc21")
"< 15 nM"
>>> reported_value("COc1ccc(-c2cc(CC(=O)N(C3CCCCC3)C(C)C(=O)NC3CCCC3)no2)cc1OC (stereo not given)")
"15.4 nM"
>>> reported_value("O=C(CN(C(=O)Cn1nnc(-c2ccc(Cl)c(Cl)c2)n1)C1CCCCC1)NC1CCCC1")
"303 nM"

* * *

biological target: Scavenger receptor class B member 1 (Mus musculus); experiment: SR-BI-mediated DiI-HDL uptake inhibitors, dose response, ldlA[mSR-BI] CHO cells, powder samples, set 3 (AID 588553); settings: DiI-HDL uptake fluorescence, 3 h
Reported AC50 values for a set of compounds
assay.readout: AC50

>>> reported_value("O=C(CN(C(=O)Cn1nnc(-c2ccc3c(c2)OC(F)(F)O3)n1)C1CCCCC1)NC1CCCC1")
"0.0653 µM"
>>> reported_value("O=C(Nc1nc(-c2ccc3c(c2)CCN3)cs1)c1ccco1")
"< 0.015 µM"
>>> reported_value("CCC(=O)N1CCc2cc(-c3csc(/N=C(/OC)c4cc(OC)cc(OC)c4)n3)ccc21")
"0.0441 µM"
>>> reported_value("COc1cc(OC)cc(C(=O)Nc2nc(-c3ccc4c(c3)CCN4C(=O)CN(C)C)cs2)c1")
"< 0.015 µM"
>>> reported_value("CCC(=O)N1CCc2cc(-c3csc(NC(=O)c4ccco4)n3)ccc21")
"0.0587 µM"
>>> reported_value("CC(C(=O)NC1CCCC1)N(C(=O)Cn1nnc(-c2ccc3c(c2)OC(F)(F)O3)n1)C1CCCCC1 (configuration not stated)")
"0.225 µM"
>>> reported_value("CCC(=O)Nc1ccc(-c2csc(NC(=O)c3cccc(OC)c3)n2)cc1")
"0.0447 µM"
>>> reported_value("CCCCCCC1CCC/C1=N\\NC(N)=S (configuration not stated)")
"< 0.015 µM"
>>> reported_value("CC(C)(C)OC(=O)N1CCc2cc(-c3noc(NC(=O)c4ccco4)n3)ccc21")
"13.9 µM"
>>> reported_value("COc1cc(OC)cc(C(=O)Nc2nc(-c3ccc4[nH]ccc4c3)cs2)c1")
"0.228 µM"
>>> reported_value("COC(=O)N1CCc2cc(-c3csc(NC(=O)c4cc(OC)cc(OC)c4)n3)ccc21")
"0.0269 µM"
>>> reported_value("CCCN1CCc2cc(-c3csc(NC(=O)c4cc(OC)cc(OC)c4)n3)ccc21")
"0.0895 µM"
>>> reported_value("CCC(=O)N1CCc2cc(-c3csc(NC(=O)c4cccc(OC(F)(F)F)c4)n3)ccc21")
"0.0292 µM"
>>> reported_value("CCC(=O)N1CCc2cc(-c3csc(NC(=O)c4cc5cccnc5o4)n3)ccc21")
"0.141 µM"
>>> reported_value("CCC(=O)Nc1ccc(-c2csc(NC(=O)c3ccco3)n2)cc1")
"2.01 µM"
>>> reported_value("CCC(=O)N1CCc2cc(-c3csc(NC(=O)c4cc(OC)cc(OC)c4)n3)ccc21")
"0.0529 µM"
>>> reported_value("CC(C(=O)NC1CCCC1)N(C(=O)Cn1nnc(-c2ccc3c(c2)OCO3)n1)C1CCOCC1 (configuration not stated)")
"0.836 µM"
>>> reported_value("COc1cc(OC)cc(C(=O)Nc2nc(-c3ccc4c(c3)CCN4C(=O)OC(C)(C)C)cs2)c1")
"< 0.015 µM"
>>> reported_value("COCC(=O)N1CCc2cc(-c3csc(NC(=O)c4cc(OC)cc(OC)c4)n3)ccc21")
"< 0.015 µM"
>>> reported_value("O=C(CN(C(=O)Cn1nnc(-c2ccc3c(c2)OCO3)n1)C1CCCCC1)NC1CCCC1")
"< 0.015 µM"
>>> reported_value("CCC(=O)Nc1ccc(-c2csc(N)n2)cc1")
"0.14 µM"
>>> reported_value("CCNC(=O)N1CCc2cc(-c3csc(NC(=O)c4cc(OC)cc(OC)c4)n3)ccc21")
"< 0.015 µM"
